- EXPERIMENT_SUMMARY: DRUGMATRIX: Interleukin IL-1 radioligand binding (ligand: [125I] interleukin 1beta)
- Type: cell membranes, Membrane
- CONDITION_INFO: nih3t3; Not Active = under 50% inhibition at 10 µM
*1 amine or outer side, *2 acyl side, *3 side chain or, on linkers, in order; H or OH if unused. Where a SMILES comes first, the peptide text is derived from it. Bridges are numbered along the chain shown (N, C = ends). Roman numbers before positions name the chains, in order. [ ]: non-standard residue; d: D form. Actinocin(1to9) = Cc1c2oc3c(C)ccc(C(=O)[*:2])c3nc-2c(C(=O)[*:1])c(N)c1=O; NMeV = CN[C@H](C(=O)O)C(C)C; Sar = CNCC(=O)O

{"COMPOUND": "CCC1(c2ccc(N)cc2)CCC(=O)NC1=O (stereo not drawn) [AMINOGLUTETHIMIDE]", "IC50": "Not Active"}
{"COMPOUND": "CC(C)(C)NC(=O)[C@@H]1C[C@@H]2CCCC[C@@H]2CN1C[C@@H](O)[C@H](Cc1ccccc1)NC(=O)[C@H](CC(N)=O)NC(=O)c1ccc2ccccc2n1", "IC50": "Not Active"}
{"COMPOUND": "Cc1c2oc3c(C)ccc(C(=O)N[C@@H]4C(=O)N[C@H](C(C)C)C(=O)N5CCC[C@H]5C(=O)N(C)CC(=O)N(C)[C@@H](C(C)C)C(=O)O[C@@H]4C)c3nc-2c(C(=O)N[C@@H]2C(=O)N[C@H](C(C)C)C(=O)N3CCC[C@H]3C(=O)N(C)CC(=O)N(C)[C@@H](C(C)C)C(=O)O[C@@H]2C)c(N)c1=O [DACTINOMYCIN] (I: T[dV]P[Sar][NMeV] / II: T[dV]P[Sar][NMeV]; ester I:1-I:C, II:1-II:C; linker I:N-II:N via Actinocin(1to9))", "IC50": "Not Active"}

----------
- TARGET_ENTITY: Muscarinic acetylcholine receptor M4 (Homo sapiens); also: in other assays of this panel Not Active means under 50% inhibition at 10 µM
- Sequence (P08173 whole entry): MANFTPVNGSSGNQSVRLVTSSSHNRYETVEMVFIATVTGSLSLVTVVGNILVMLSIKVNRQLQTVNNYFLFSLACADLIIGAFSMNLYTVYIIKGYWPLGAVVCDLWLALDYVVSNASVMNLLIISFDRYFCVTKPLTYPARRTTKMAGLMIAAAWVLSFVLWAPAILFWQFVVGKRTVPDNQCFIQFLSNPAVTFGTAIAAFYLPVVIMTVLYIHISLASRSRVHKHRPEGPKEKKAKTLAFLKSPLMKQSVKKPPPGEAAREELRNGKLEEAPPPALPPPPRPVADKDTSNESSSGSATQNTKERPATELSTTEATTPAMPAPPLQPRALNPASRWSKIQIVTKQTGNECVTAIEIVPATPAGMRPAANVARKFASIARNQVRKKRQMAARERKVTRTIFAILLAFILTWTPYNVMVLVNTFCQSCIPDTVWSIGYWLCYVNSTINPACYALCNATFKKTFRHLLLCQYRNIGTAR
- Assay type: cell membranes, CHO-K1, Membrane
- CONDITION_INFO: cho-k1
OUTCOME_MEASURE: IC50

Previously resolved entries follow.
{"MOLECULE": "CCOC(=O)C1=C(COCCN)NC(C)=C(C(=O)OC)C1c1ccccc1Cl (configuration not stated)", "IC50": "Not Active"}
{"MOLECULE": "CC(=O)O[C@@]12CO[C@@H]1C[C@H](O)[C@@]1(C)C(=O)[C@H](O)C3=C(C)[C@@H](OC(=O)[C@H](O)[C@@H](NC(=O)OC(C)(C)C)c4ccccc4)C[C@@](O)([C@@H](OC(=O)c4ccccc4)[C@H]21)C3(C)C.O.O.O", "IC50": "Not Active"}
{"MOLECULE": "CCCN1C[C@H](CSC)C[C@@H]2c3cccc4[nH]cc(c34)C[C@H]21 [PERGOLIDE]", "IC50": "Not Active"}
{"MOLECULE": "N[C@@H](Cc1cc(I)c(Oc2ccc(O)c(I)c2)c(I)c1)C(=O)O", "IC50": "Not Active"}
{"MOLECULE": "CC1=C2C(=CO[C@H](C)[C@H]2C)C(O)=C(C(=O)O)C1=O", "IC50": "Not Active"}

Lookup: Can you share its IC50? I mean this molecule: CN(C)C(=O)Oc1cc(OC(=O)N(C)C)cc(C(O)CNC(C)(C)C)c1 (configuration not stated)
Found: Not Active

Lookup: Can you share its IC50? I mean this molecule: Cc1ccc(N(CC2=NCCN2)c2cccc(O)c2)cc1
Found: Not Active

----------
- TARGET_ENTITY: Neuropeptide Y receptor type 1 (Homo sapiens, UniProt P25929); also: in other assays of this panel Not Active means under 50% inhibition at 10 µM
- Sequence (P25929 whole entry): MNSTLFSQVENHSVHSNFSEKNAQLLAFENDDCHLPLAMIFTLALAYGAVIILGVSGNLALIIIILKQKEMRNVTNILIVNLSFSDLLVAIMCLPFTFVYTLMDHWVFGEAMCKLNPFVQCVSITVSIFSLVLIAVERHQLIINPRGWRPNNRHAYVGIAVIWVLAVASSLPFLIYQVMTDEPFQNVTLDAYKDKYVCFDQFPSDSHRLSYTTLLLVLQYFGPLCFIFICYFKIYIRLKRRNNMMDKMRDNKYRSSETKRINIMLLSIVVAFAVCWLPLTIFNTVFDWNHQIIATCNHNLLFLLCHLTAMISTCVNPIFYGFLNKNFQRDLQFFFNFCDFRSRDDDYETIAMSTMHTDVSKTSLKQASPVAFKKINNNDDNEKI
- Assay type: cell membranes, Membrane
- CONDITION_INFO: sk-n-mc

{"COMPOUND": "C=CCC1(C(C)CCC)C(=O)NC(=O)NC1=O (stereo not drawn)", "TARGET_ENTITY": "Neuropeptide Y receptor type 1 (Homo sapiens, UniProt P25929)", "IC50": "Not Active"}
{"COMPOUND": "CC(C)[C@@]1(NC(=O)[C@@H]2C[C@@H]3c4cccc5[nH]cc(c45)C[C@H]3N(C)C2)O[C@@]2(O)[C@@H]3CCCN3C(=O)[C@H](Cc3ccccc3)N2C1=O.CS(=O)(=O)O [DIHYDROERGOCRISTINE MESYLATE]", "TARGET_ENTITY": "Neuropeptide Y receptor type 1 (Homo sapiens, UniProt P25929)", "IC50": "Not Active"}
{"COMPOUND": "CC(=O)O[C@@]12CO[C@@H]1C[C@H](O)[C@@]1(C)C(=O)[C@H](O)C3=C(C)[C@@H](OC(=O)[C@H](O)[C@@H](NC(=O)OC(C)(C)C)c4ccccc4)C[C@@](O)([C@@H](OC(=O)c4ccccc4)[C@H]21)C3(C)C.O.O.O", "TARGET_ENTITY": "Neuropeptide Y receptor type 1 (Homo sapiens, UniProt P25929)", "IC50": "Not Active"}

----------
- EXPERIMENT_SUMMARY: DRUGMATRIX: Glutamate, AMPA radioligand binding (ligand: [3H] AMPA)
- Format: cell membranes, Rattus norvegicus, Wistar, Cerebral cortex, Membrane
- CONDITION_INFO: Not Active = under 50% inhibition at 10 µM

{"SUBSTANCE": "LIPOPOLYSACCHARIDE E. COLI O55:B5", "IC50": "Not Active"}
{"SUBSTANCE": "SODIUM NITROPRUSSIDE", "IC50": "Not Active"}
{"SUBSTANCE": "CADMIUM ACETATE", "IC50": "Not Active"}
{"SUBSTANCE": "LEAD (II) ACETATE", "IC50": "Not Active"}

----------
- TARGET_ENTITY: Mitogen-activated protein kinase 14 (Homo sapiens); also: in other assays of this panel Not Active means under 50% inhibition at 10 µM;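 also: inhibition of p38alpha enzyme activity in a biochemical kinase assay, with myelin basic protein serving as substrate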
- Sequence (Q16539 whole entry): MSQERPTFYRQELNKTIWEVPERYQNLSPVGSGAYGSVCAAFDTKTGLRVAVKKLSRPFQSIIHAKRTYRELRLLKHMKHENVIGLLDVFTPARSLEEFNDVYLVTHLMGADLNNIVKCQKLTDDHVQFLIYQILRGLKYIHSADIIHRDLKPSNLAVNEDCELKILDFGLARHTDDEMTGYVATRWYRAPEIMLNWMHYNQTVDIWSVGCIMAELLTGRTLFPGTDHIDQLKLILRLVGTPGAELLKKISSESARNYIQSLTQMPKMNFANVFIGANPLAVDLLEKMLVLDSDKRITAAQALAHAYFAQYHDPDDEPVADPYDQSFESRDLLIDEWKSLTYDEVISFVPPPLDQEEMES
- Set-up: species or system Escherichia coli
- CONDITION_INFO: read-out: IC50
OUTCOME_MEASURE: pIC50
Lab note — pIC50 values are minus log10 of concentrations in M.

Lookup: Can you share its pIC50? I mean this compound: Cc1cc(C(C#N)c2ccc(Cl)cc2)c(Cl)cc1NC(=O)c1cc(I)cc(I)c1O (stereo unspecified)
Found: 6.18

----------
- TARGET_ENTITY: Endothelin-1 receptor (Homo sapiens, UniProt P25101); also: in other assays of this panel Not Active means under 50% inhibition at 10 µM
- Sequence (P25101 whole entry): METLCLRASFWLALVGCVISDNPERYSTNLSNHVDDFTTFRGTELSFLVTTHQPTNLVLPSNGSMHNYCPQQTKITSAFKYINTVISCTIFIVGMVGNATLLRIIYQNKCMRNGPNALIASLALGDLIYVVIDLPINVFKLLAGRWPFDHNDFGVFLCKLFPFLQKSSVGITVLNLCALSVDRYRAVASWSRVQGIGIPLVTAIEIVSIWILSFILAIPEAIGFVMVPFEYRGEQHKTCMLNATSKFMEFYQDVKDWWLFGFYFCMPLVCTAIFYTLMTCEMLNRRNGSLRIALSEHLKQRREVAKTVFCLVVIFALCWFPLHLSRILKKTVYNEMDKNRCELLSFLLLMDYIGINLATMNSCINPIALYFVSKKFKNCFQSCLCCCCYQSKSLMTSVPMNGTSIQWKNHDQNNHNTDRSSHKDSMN
- Type: cell membranes, CHO-K1, Membrane
- CONDITION_INFO: read-out: IC50
OUTCOME_MEASURE: IC50 (µM)
Report as a plain number; the unit µM is understood.

Lookup: Reported IC50 for Endothelin-1 receptor (Homo sapiens, UniProt P25101), given CCCCc1oc2ccccc2c1C(=O)c1cc(I)c(OCCN(CC)CC)c(I)c1 ?
Found: 26.3

----------
Some substances, each annotated with its measured IC50.
- TARGET_ENTITY: Receptor tyrosine-protein kinase erbB-2 (Homo sapiens, UniProt P04626); also: in other assays of this panel Not Active means under 50% inhibition at 10 µM;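 also: inhibition of HER2 kinase enzyme activity, measured with Poly(Glu:Tyr) as the phosphorylation substrate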
- EXPERIMENT_SUMMARY: biochemical
- Format: cell-based, Insect cells
- CONDITION_INFO: insect cells; read-out: IC50
Provide a numeric answer, followed by its unit.

Lookup: Can you share its IC50? I mean this substance: CADMIUM ACETATE
Found: 1190 nM

Lookup: Can you share its IC50? I mean this substance: LIPOPOLYSACCHARIDE E. COLI O55:B5
Found: 449 nM
